Attribution: paper PMC11085308

# Test system: HCT 116 (colorectal carcinoma)
# procedure.summary: Antiproliferative activity in vitro, MTT assay, 72 h
# Format: cell-based
# experimental.context: Homo sapiens, 72 h incubation, '-' with footnote a = did not show biological activity due to precipitation
Threshold 4 µM: IC50 strictly smaller gives 1 (yes), otherwise 0 (no).

Examples with answers:
molecule	label.value
O=C(Nc1nc2ccccc2[nH]1)c1cc(O)c(O)c(O)c1	0 (no)
CCCCCCn1c(NC(=O)c2cc(O)c(O)c(O)c2)nc2cc(C#N)ccc21	0 (no)
COc1cc([C@@H]2c3cc4c(cc3[C@@H](O[C@@H]3O[C@@H]5CO[C@@H](C)O[C@H]5[C@H](O)[C@H]3O)[C@H]3COC(=O)[C@H]23)OCO4)cc(OC)c1O [Etoposide, etoposide, reference compound]	1 (yes)
O=C(Nc1nc2ccccc2[nH]1)c1ccc(O)cc1O	0 (no)
Cn1c(NC(=O)c2ccc(O)cc2O)nc2cc(C#N)ccc21	0 (no)
COc1c(O)cc(C(=O)Nc2nc3ccccc3[nH]2)cc1O	0 (no)
Cn1c(NC(=O)c2ccccc2O)nc2cc(C#N)ccc21	1 (yes)
O=C(Nc1nc2ccccc2n1-c1ccccc1)c1cc(O)c(O)c(O)c1	0 (no)

Strictly below 4 µM in IC50? Cn1c(NC(=O)c2cc(O)c(O)c(O)c2)nc2cc(C#N)ccc21
0 (no)

Hello, is IC50 of the following molecule strictly smaller than 4 µM? COc1cccc2c1C(=O)c1c(O)c3c(c(O)c1C2=O)C[C@@](O)(C(=O)CO)C[C@@H]3O[C@H]1C[C@H](N)[C@H](O)[C@H](C)O1 [Doxorubicin, doxorubicin, reference compound]
1 (yes)

###

# Tested on: HEK 293 (human embryonic kidney)
# procedure.summary: Antiproliferative activity in vitro, MTT assay, 72 h, non-cancerous cell line
# Type: cell-based
# experimental.context: HEK293, 72 h incubation, '-' with footnote a = did not show biological activity due to precipitation
IC50 vs 20 µM: less than gives 1 (yes); not less than gives 0 (no).

Answered examples (3):
compound	label.value
COc1cc([C@@H]2c3cc4c(cc3[C@@H](O[C@@H]3O[C@@H]5CO[C@@H](C)O[C@H]5[C@H](O)[C@H]3O)[C@H]3COC(=O)[C@H]23)OCO4)cc(OC)c1O [Etoposide, etoposide, reference compound]	1 (yes)
O=C(Nc1nc2ccccc2[nH]1)c1cc(O)c(O)c(O)c1	0 (no)
Cn1c(NC(=O)c2cc(O)c(O)c(O)c2)nc2ccccc21	0 (no)

Check if IC50 falls below 20 µM for Cn1c(NC(=O)c2cc(O)c(O)c(O)c2)nc2cc(C#N)ccc21 .
0 (no)

Criterion: IC50 strictly below 20 µM. Is it met by COc1c(O)cc(C(=O)Nc2nc3ccccc3[nH]2)cc1O ?
0 (no)

Does the reported IC50 of O=C(Nc1nc2ccccc2n1-c1ccccc1)c1cc(O)c(O)c(O)c1 stay below 20 µM?
0 (no)

###

# Test system: A. baumannii ATCC 17978
# procedure.summary: Antibacterial activity in vitro, broth microdilution MIC
# Assay type: cell-based
# experimental.context: 16–24 h at 37 °C, unit inferred
metric: MIC A. baumannii ATCC 17978

Solved cases (5 shown):
compound	result
COc1c(O)cc(C(=O)Nc2nc3ccccc3[nH]2)cc1O	> 64 µM
O=C(Nc1nc2ccccc2n1-c1ccccc1)c1cc(O)c(O)c(O)c1	> 64 µM
O=C(Nc1nc2ccccc2[nH]1)c1ccc(O)cc1O	> 64 µM
Cn1c(NC(=O)c2cc(O)c(O)c(O)c2)nc2cc(C#N)ccc21	> 64 µM
COc1ccc(C(=O)Nc2nc3cc(C#N)ccc3n2C)c(O)c1	> 64 µM

Give MIC A. baumannii ATCC 17978 for each of the items listed below.
1. CC1(C)S[C@@H]2[C@H](NC(=O)[C@H](N)c3ccccc3)C(=O)N2[C@H]1C(=O)O [Ampicillin, ampicillin, reference compound]
2. COc1ccc(C(=O)Nc2nc3ccccc3[nH]2)c(O)c1
3. CCCCCCn1c(NC(=O)c2cc(O)c(O)c(O)c2)nc2cc(C#N)ccc21

1: 32 µM; 2: > 64 µM; 3: > 64 µM

Record MIC A. baumannii ATCC 17978 for all entries; do not skip any.
1. COc1ccc(C(=O)Nc2nc3cc(C#N)ccc3n2CC(C)C)c(O)c1
2. C[C@@H](O)[C@H]1C(=O)N2C(C(=O)O)=C(S[C@@H]3CN[C@H](C(=O)N(C)C)C3)[C@H](C)[C@H]12 [Meropenem, meropenem, reference compound]
3. NC[C@H]1O[C@H](O[C@H]2[C@H](O)[C@@H](O[C@H]3O[C@H](CO)[C@@H](O)[C@H](N)[C@H]3O)[C@H](N)C[C@@H]2N)[C@H](N)C[C@@H]1O [Tobramycin, reference compound]
4. CC[C@H]1OC(=O)[C@H](C)[C@@H](O[C@H]2C[C@@](C)(OC)[C@@H](O)[C@H](C)O2)[C@H](C)[C@@H](O[C@@H]2O[C@H](C)C[C@H](N(C)C)[C@H]2O)[C@](C)(O)C[C@@H](C)CN(C)[C@H](C)[C@@H](O)[C@]1(C)O [Azithromycin, azithromycin, reference compound]
5. Cn1c(NC(=O)c2cc(O)c(O)c(O)c2)nc2ccccc21
6. CC(C)(O/N=C(\C(=O)N[C@@H]1C(=O)N2C(C(=O)[O-])=C(C[n+]3ccccc3)CS[C@H]12)c1csc(N)n1)C(=O)O [Ceftazidime, ceftazidime, reference compound]
7. Cn1c(NC(=O)c2ccccc2O)nc2cc(C#N)ccc21

1. > 64 µM
2. 0.5 µM
3. 2 µM
4. 8 µM
5. > 64 µM
6. 4 µM
7. > 64 µM

###

Provide the reported pIC50 of each item.
# Test system: H460 (lung carcinoma)
# procedure.summary: Antiproliferative activity in vitro, MTT assay, 72 h
# Type: cell-based
# experimental.context: Homo sapiens, NCI-H460, 72 h incubation
Answers are plain numbers, as −log10 of the molar value.

Below, each entry is followed by its recorded pIC50 result.
molecule	pIC50
Cn1c(NC(=O)c2cc(O)c(O)c(O)c2)nc2cc(C#N)ccc21	4.32
COc1cccc2c1C(=O)c1c(O)c3c(c(O)c1C2=O)C[C@@](O)(C(=O)CO)C[C@@H]3O[C@H]1C[C@H](N)[C@H](O)[C@H](C)O1 [Doxorubicin, doxorubicin, reference compound]	7.40
COc1c(O)cc(C(=O)Nc2nc3ccccc3[nH]2)cc1O	4.04

Now look at this entry.
Note down pIC50 recorded for CCCCCCn1c(NC(=O)c2cc(O)c(O)c(O)c2)nc2cc(C#N)ccc21
4.33

###

Could you please report measured MIC S. aureus ATCC 29213 for the items listed next?
# Test system: S. aureus ATCC 29213
# procedure.summary: Antibacterial activity in vitro, broth microdilution MIC
# Assay type: cell-based, Staphylococcus aureus
# experimental.context: broth microdilution, 16–24 h at 37 °C; unit inferred
Answers are plain numbers, in µM.

Below: 2 compounds and their reported MIC S. aureus ATCC 29213.
compound	readout.unit	MIC S. aureus ATCC 29213
Cn1c(NC(=O)c2cc(O)c(O)c(O)c2)nc2ccccc21	µM	64
CCCCCCn1c(NC(=O)c2cc(O)c(O)c(O)c2)nc2cc(C#N)ccc21	µM	16

Go through the items and report each one's MIC S. aureus ATCC 29213.
1. CC[C@H]1OC(=O)[C@H](C)[C@@H](O[C@H]2C[C@@](C)(OC)[C@@H](O)[C@H](C)O2)[C@H](C)[C@@H](O[C@@H]2O[C@H](C)C[C@H](N(C)C)[C@H]2O)[C@](C)(O)C[C@@H](C)CN(C)[C@H](C)[C@@H](O)[C@]1(C)O [Azithromycin, azithromycin, reference compound]
2. CC1(C)S[C@@H]2[C@H](NC(=O)[C@H](N)c3ccccc3)C(=O)N2[C@H]1C(=O)O [Ampicillin, ampicillin, reference compound]

1. 1
2. 0.5

###

Exercise: state measured melting point for each of the compounds provided.

Worked cases, melting point given:
                               given_smiles         metric         result
0  CC(C)Cn1c(NC(=O)c2cc(O)c(O)c(O)c2)nc2ccccc21  melting point  291 to 293 °C
1        O=C(Nc1nc2ccccc2[nH]1)c1ccc(O)cc1O  melting point  212 to 214 °C
2  Cn1c(NC(=O)c2cc(O)c(O)c(O)c2)nc2cc(C#N)ccc21  melting point  245 to 251 °C
3  O=C(Nc1nc2ccccc2n1-c1ccccc1)c1cc(O)c(O)c(O)c1  melting point  278 to 281 °C
4  CCCCCCn1c(NC(=O)c2cc(O)c(O)c(O)c2)nc2cc(C#N)ccc21  melting point  290 to 294 °C
5   O=C(Nc1nc2ccccc2[nH]1)c1cc(O)c(O)c(O)c1  melting point  230 to 234 °C

Read the next record carefully.
Provide one value: measured melting point of Cn1c(NC(=O)c2ccc(O)cc2O)nc2cc(C#N)ccc21
273 to 275 °C
